Values were extracted from ChEMBL document CHEMBL5291721.

Recorded AC50 by entry
target: Progesterone receptor (Homo sapiens); type: functional; note: assay procedure not described here
Sequence (P06401 whole entry): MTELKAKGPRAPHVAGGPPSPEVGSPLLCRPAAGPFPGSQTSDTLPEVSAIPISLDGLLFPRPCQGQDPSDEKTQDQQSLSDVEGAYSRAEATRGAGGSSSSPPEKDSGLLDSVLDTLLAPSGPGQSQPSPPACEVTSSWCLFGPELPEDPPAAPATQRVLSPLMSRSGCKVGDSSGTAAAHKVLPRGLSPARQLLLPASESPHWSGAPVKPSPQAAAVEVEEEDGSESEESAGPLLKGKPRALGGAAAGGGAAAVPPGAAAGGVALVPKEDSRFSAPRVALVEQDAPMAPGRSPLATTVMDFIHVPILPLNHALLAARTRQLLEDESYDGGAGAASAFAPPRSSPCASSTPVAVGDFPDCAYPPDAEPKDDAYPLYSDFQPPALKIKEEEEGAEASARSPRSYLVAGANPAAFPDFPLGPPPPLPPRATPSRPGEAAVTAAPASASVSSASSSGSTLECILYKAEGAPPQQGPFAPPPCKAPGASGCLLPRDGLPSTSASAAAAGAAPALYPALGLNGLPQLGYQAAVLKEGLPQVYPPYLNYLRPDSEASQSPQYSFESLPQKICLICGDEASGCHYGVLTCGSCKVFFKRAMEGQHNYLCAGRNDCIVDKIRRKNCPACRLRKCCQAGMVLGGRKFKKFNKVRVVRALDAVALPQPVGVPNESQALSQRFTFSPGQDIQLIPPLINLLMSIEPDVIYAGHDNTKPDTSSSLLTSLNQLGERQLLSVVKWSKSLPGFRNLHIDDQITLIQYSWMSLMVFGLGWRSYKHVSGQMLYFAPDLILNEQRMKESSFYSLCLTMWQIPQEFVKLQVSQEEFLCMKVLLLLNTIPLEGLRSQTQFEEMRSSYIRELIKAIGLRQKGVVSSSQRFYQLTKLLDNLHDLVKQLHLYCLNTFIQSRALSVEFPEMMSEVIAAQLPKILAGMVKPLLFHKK

Example cases with answers are listed next.
| compound | AC50 |
| --- | --- |
| CCN(CC)CCNC(=O)c1cc(S(C)(=O)=O)ccc1OC [TIAPRIDE] | > 30 µM |
| CCN(CC)C(=O)Nc1ccc(OCC(O)CNC(C)(C)C)c(C(C)=O)c1 (centres undefined) | > 30 µM |
| CC(N)C12CC3CC(CC(C3)C1)C2 (centres undefined) | > 10 µM |
| COc1ccccc1Oc1c(NS(=O)(=O)c2ccc(C(C)(C)C)cc2)nc(-c2ncccn2)nc1OCCO | > 30 µM |
| C[C@]12C=CC(=O)N[C@@H]1CC[C@@H]1[C@@H]2CC[C@]2(C)[C@@H](C(=O)Nc3cc(C(F)(F)F)ccc3C(F)(F)F)CC[C@@H]12 [DUTASTERIDE] | > 10 µM |
| Oc1ccc2c(c1)[C@@]13CCCC[C@@]1(O)[C@@H](C2)N(CC1CCC1)CC3 | > 30 µM |
| C[C@@H](NCCCc1cccc(C(F)(F)F)c1)c1cccc2ccccc12 | > 30 µM |
| NC1CCN(c2nc3c(cc2F)c(=O)c(C(=O)O)cn3-c2ccc(F)cc2F)C1 (centres undefined) | > 30 µM |

Moving on to the next compound.
IN: I have this compound here, O=C1C(CC[S+]([O-])c2ccccc2)C(=O)N(c2ccccc2)N1c1ccccc1 (centres undefined) , and I need its recorded AC50.
OUT: > 10 µM

---

biological target: 5-hydroxytryptamine receptor 2A (Homo sapiens, UniProt P28223); type: functional, cell-based; note: assay procedure not described here
Sequence (P28223 whole entry): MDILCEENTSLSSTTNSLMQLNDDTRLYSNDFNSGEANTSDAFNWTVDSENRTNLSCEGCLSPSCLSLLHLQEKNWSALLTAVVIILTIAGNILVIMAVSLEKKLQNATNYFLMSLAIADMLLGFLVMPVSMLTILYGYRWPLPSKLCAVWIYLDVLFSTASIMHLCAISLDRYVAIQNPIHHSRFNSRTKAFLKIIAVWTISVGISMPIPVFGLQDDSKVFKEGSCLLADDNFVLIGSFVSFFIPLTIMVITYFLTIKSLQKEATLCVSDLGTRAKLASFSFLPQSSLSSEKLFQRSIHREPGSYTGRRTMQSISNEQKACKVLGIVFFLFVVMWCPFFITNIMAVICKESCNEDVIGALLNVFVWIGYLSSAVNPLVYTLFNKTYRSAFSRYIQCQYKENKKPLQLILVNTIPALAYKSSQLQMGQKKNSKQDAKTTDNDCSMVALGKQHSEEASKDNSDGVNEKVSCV
Recorded AC50 by entry

| molecule | measurementKind | dataValue |
| --- | --- | --- |
| CNCc1ccc(-c2[nH]c3cc(F)cc4c3c2CCNC4=O)cc1 | AC50 | > 10 µM |
| C[C@]12CCC(=O)C(O)=C1CC[C@@H]1[C@@H]2CC[C@]2(C)C(=O)CC[C@@H]12 | AC50 | > 30 µM |
| C#CCOc1ccc(N)cc1C(=O)NCCCC [PARSALMIDE] | AC50 | > 30 µM |
| CCC(COC(=O)c1cc(OC)c(OC)c(OC)c1)(c1ccccc1)N(C)C (configuration not stated) | AC50 | > 30 µM |
| C[C@]12CC[C@@H]3c4ccc(O)cc4C[C@@H](CCCCCCCCC[S+]([O-])CCCC(F)(F)C(F)(F)F)[C@H]3[C@@H]1CC[C@@H]2O (some centres not stated) | AC50 | > 30 µM |

IN: I have this molecule here, CC(=O)N[C@@H](CS)C(=O)O , and I need its recorded AC50.
OUT: > 30 µM

IN: I have this molecule here, CN(C)CCc1c[nH]c2ccc(Cn3cncn3)cc12 , and I need its recorded AC50.
OUT: 7.75 µM

IN: I have this molecule here, Oc1ccc2c(c1)CC[C@H](c1ccccc1)[C@@H]2c1ccc(OCCN2CCCC2)cc1 , and I need its recorded AC50.
OUT: 12 µM

IN: I have this molecule here, CN(CC1(C)CCCO1)S(=O)(=O)c1ccc(Cl)c(S(N)(=O)=O)c1 (configuration not stated) [MEFRUSIDE] , and I need its recorded AC50.
OUT: > 30 µM

IN: I have this molecule here, CCC(C)C(CC)C(N)=O (configuration not stated) [VALNOCTAMIDE] , and I need its recorded AC50.
OUT: > 30 µM

IN: I have this molecule here, CC(C)COCC(CN(Cc1ccccc1)c1ccccc1)N1CCCC1 (configuration not stated) , and I need its recorded AC50.
OUT: > 30 µM

IN: I have this molecule here, COc1ccc(CC2c3cc(OC)c(OC)cc3CC[N+]2(C)CCC(=O)OCCCCCOC(=O)CC[N+]2(C)CCc3cc(OC)c(OC)cc3C2Cc2ccc(OC)c(OC)c2)cc1OC (configuration not stated) , and I need its recorded AC50.
OUT: > 30 µM

IN: I have this molecule here, CCN(CC)C(=O)Nc1ccc(OCC(O)CNC(C)(C)C)c(C(C)=O)c1 (configuration not stated) , and I need its recorded AC50.
OUT: > 30 µM

IN: I have this molecule here, CCN1CCN(Cc2ccc(Nc3ncc(F)c(-c4cc(F)c5nc(C)n(C(C)C)c5c4)n3)nc2)CC1 , and I need its recorded AC50.
OUT: > 30 µM

IN: I have this molecule here, CCC1(c2ccccc2)CCC(=O)NC1=O (configuration not stated) [GLUTETHIMIDE] , and I need its recorded AC50.
OUT: > 30 µM

IN: I have this molecule here, C[C@]12C=CC(=O)N[C@@H]1CC[C@@H]1[C@@H]2CC[C@]2(C)[C@@H](C(=O)Nc3cc(C(F)(F)F)ccc3C(F)(F)F)CC[C@@H]12 [DUTASTERIDE] , and I need its recorded AC50.
OUT: > 10 µM

IN: I have this molecule here, C[C@H](CCC(=O)O)[C@H]1CC[C@H]2[C@@H]3[C@@H](O)C[C@@H]4C[C@H](O)CC[C@]4(C)[C@H]3CC[C@]12C , and I need its recorded AC50.
OUT: > 30 µM

---

molecular target: Voltage-gated inwardly rectifying potassium channel KCNH2 (Homo sapiens); assay type: functional; note: assay procedure not described here
Sequence (Q12809 whole entry): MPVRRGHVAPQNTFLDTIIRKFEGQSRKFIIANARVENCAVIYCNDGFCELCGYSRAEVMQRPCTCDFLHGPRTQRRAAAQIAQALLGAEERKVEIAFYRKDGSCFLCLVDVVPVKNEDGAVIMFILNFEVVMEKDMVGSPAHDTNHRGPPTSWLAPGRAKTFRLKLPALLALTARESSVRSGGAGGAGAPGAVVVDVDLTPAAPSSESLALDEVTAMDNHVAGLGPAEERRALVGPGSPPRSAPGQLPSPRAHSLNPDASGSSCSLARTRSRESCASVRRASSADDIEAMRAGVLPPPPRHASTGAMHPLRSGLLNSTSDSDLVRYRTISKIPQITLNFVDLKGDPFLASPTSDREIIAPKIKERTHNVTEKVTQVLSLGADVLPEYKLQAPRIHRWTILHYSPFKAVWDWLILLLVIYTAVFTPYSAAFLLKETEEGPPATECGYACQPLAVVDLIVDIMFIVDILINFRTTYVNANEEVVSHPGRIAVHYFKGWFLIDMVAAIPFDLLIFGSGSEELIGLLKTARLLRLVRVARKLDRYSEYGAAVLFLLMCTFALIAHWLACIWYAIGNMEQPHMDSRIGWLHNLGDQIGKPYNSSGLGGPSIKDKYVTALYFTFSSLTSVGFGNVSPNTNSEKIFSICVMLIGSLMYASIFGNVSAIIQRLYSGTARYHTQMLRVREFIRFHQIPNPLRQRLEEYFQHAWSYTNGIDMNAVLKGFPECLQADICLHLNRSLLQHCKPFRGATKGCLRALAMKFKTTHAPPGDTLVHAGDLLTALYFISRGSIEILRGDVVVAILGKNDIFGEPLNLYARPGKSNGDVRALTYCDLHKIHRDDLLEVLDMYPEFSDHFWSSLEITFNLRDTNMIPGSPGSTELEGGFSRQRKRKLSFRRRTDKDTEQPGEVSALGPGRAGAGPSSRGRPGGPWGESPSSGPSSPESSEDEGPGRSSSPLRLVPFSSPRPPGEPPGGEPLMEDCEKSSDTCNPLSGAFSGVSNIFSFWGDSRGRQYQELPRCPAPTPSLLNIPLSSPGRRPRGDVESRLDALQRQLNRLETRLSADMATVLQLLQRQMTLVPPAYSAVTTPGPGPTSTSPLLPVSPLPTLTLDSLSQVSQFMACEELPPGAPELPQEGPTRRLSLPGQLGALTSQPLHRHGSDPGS
Recorded AC50 by entry

| molecule | experimentalSystem | AC50 |
| --- | --- | --- |
| C=C[C@@]1(C)CC(=O)[C@]2(O)[C@@]3(C)[C@@H](O)CCC(C)(C)[C@@H]3[C@H](O)[C@H](OC(C)=O)[C@@]2(C)O1 | Voltage-gated inwardly rectifying potassium channel KCNH2 (Homo sapiens) | > 30 µM |
| CC(=O)N[C@@H](CS)C(=O)O | Voltage-gated inwardly rectifying potassium channel KCNH2 (Homo sapiens) | > 30 µM |
| CNC(=O)Oc1cccc2ccccc12 | Voltage-gated inwardly rectifying potassium channel KCNH2 (Homo sapiens) | > 30 µM |
| Nc1ncn([C@H]2C[C@H](O)[C@@H](CO)O2)c(=O)n1 | Voltage-gated inwardly rectifying potassium channel KCNH2 (Homo sapiens) | > 30 µM |
| N[C@@H](CO)C(=O)O | Voltage-gated inwardly rectifying potassium channel KCNH2 (Homo sapiens) | > 30 µM |

IN: I have this molecule here, C[N@+]1(CCF)[C@@H]2CC[C@H]1C[C@@H](OC(=O)C(O)(c1ccccc1)c1ccccc1)C2 , and I need its recorded AC50.
OUT: 2.38 µM

IN: I have this molecule here, CC(C(=O)O)c1ccc(-c2ccccc2)c(F)c1 (centres undefined) , and I need its recorded AC50.
OUT: > 30 µM

IN: I have this molecule here, O=C(O)c1ccccc1Nc1cc(Cl)ccc1C(=O)O , and I need its recorded AC50.
OUT: > 30 µM

IN: I have this molecule here, CCCN(CCC)C(=O)Cc1c(-c2ccc(Cl)cc2)nc2ccc(Cl)cn12 , and I need its recorded AC50.
OUT: 14.8 µM

---

For reference, AC50 measured on UniProtKB P34969:

Example cases with answers are listed next.
| compound | AC50 |
| --- | --- |
| CCN(CC)CCNC(=O)c1c(C)[nH]c(/C=C2\C(=O)Nc3ccc(F)cc32)c1C [SUNITINIB] | > 30 µM |
| C=CC[C@@H]1/C=C(\C)C[C@H](C)C[C@H](OC)[C@H]2O[C@@](O)(C(=O)C(=O)N3CCCC[C@H]3C(=O)O[C@H](/C(C)=C/[C@@H]3CC[C@@H](O)[C@H](OC)C3)[C@H](C)[C@@H](O)CC1=O)[C@H](C)C[C@@H]2OC [TACROLIMUS ANHYDROUS] | > 10 µM |

IN: I have this compound here, CN1CCN(C2=Nc3ccccc3Oc3ccc(Cl)cc32)CC1 [LOXAPINE] , and I need its recorded AC50.
OUT: 0.732 µM

IN: I have this compound here, CC(C)Cc1ccc(C(C)C(=O)O)cc1 (stereo unspecified) [IBUPROFEN] , and I need its recorded AC50.
OUT: > 10 µM

IN: I have this compound here, CN(C)CCc1c[nH]c2ccc(Cn3cncn3)cc12 [RIZATRIPTAN] , and I need its recorded AC50.
OUT: > 10 µM

IN: I have this compound here, Cn1c(=O)cc(N2CCC[C@@H](N)C2)n(Cc2ccccc2C#N)c1=O [ALOGLIPTIN] , and I need its recorded AC50.
OUT: > 10 µM

---

target: Gamma-aminobutyric acid receptor subunit alpha-1 (Rattus norvegicus); format: functional; note: assay procedure not described here
Sequence (P62813 whole entry): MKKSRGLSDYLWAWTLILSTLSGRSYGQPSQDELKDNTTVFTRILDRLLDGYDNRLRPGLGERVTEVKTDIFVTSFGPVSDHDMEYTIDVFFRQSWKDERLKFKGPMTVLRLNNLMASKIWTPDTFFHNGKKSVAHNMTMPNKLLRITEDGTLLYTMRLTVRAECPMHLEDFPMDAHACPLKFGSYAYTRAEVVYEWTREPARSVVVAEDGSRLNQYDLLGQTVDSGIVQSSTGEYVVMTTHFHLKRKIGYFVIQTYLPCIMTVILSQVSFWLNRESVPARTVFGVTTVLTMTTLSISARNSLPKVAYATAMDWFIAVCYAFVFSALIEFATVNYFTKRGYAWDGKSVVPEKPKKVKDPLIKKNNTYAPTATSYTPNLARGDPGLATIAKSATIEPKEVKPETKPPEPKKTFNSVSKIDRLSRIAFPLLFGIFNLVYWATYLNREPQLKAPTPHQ
measurementKind: AC50

Example cases with answers are listed next.
| compound | AC50 |
| --- | --- |
| O=C1CN(/N=C/c2ccc(-c3ccc([N+](=O)[O-])cc3)o2)C(O)=N1 [DANTROLENE] | > 10 µM |
| C=C[C@@]1(C)CC(=O)[C@]2(O)[C@@]3(C)[C@@H](O)CCC(C)(C)[C@@H]3[C@H](O)[C@H](OC(C)=O)[C@@]2(C)O1 [COLFORSIN] | > 30 µM |
| O=C1CCc2cc(OCCCCc3nnnn3C3CCCCC3)ccc2N1 [CILOSTAZOL] | > 30 µM |

Moving on to the next compound.
IN: I have this compound here, Nc1cc(-c2ccncc2)c[nH]c1=O [INAMRINONE] , and I need its recorded AC50.
OUT: > 10 µM
